# test.system: UniProtKB Q9UDY8
# protocol: biochemical
pIC50: −log10 of the molar value.
quantity.measured: pIC50

Problem: Given CC(=O)NCCC(=O)N(C)[C@@H](c1ccc(NC2Cc3ccccc3C2(C)C)cc1)C(F)(F)F (single isomer, unassigned) [Example 25] , state its recorded pIC50.
Solution: 7.57

Problem: Dear colleague, I am looking for the recorded pIC50 of the following compound: CN(C(=O)C1CN(C(=O)C2CCOC2)C1)[C@@H](c1ccc(NC2Cc3ccc(Cl)c(Cl)c3C2)cn1)C(F)(F)F (single isomer, unassigned) [Example 351]
Solution: 6.23

Problem: // pIC50 lookup, key: CN(C(=O)C1CCS(=O)(=O)CC1)[C@@H](c1ccc(NC2Cc3cc(Cl)cc(F)c3C2)cn1)C(F)(F)F (single isomer, unassigned) [Example 270]
Solution: 7.09

I = CN(C(=O)C1CN(S(C)(=O)=O)C1)[C@@H](c1ccc(NC2Cc3ccccc3C2(C)C)cn1)C(F)(F)F (single isomer, unassigned) [Example 210]
II = CN(C(=O)C1CCS(=O)(=O)CC1)[C@@H](c1ccc(N[C@@H]2Cc3ccc(Cl)cc3C2)cn1)C(F)(F)F (single isomer, unassigned)
III = CN(C(=O)C1C2CS(=O)(=O)CC21)[C@@H](c1ccc(NC2Cc3ccccc3C2(C)C)cn1)C(F)(F)F (single isomer, unassigned) [Example 216]
Problem: Arrange the 3 compounds from largest to smallest pIC50. State the ranking by listing the labels in the requested order.
Solution: III, I, II

* * *

# test.system: MALT1-GS-Ub (6-His-hMALT-1 residues 339-715 fused to ubiquitin) (Homo sapiens, UniProt Q9UDY8);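 note: in vitro MALT1 protease assay: enzyme preincubated with compound 30 min at room temperature, then cleavage of fluorogenic Ac-LVSR-AMC substrate (100 µM) followed by fluorescence every 15 min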
# Sequence (Q9UDY8 with tags, fused parts or gaps limits assumed): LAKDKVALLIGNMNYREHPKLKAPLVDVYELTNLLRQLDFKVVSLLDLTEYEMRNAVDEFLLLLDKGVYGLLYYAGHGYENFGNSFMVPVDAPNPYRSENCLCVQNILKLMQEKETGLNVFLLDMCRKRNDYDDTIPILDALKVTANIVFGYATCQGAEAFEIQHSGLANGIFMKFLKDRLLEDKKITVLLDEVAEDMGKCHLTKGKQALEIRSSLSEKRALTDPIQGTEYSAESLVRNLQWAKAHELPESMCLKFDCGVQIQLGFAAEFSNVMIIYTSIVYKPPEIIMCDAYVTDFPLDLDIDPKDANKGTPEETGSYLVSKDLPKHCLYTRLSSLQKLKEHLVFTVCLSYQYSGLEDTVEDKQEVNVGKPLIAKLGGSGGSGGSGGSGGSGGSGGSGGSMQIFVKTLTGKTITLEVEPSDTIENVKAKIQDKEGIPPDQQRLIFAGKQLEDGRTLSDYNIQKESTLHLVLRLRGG
# protocol: biochemical
pIC50: −log10 of the molar value.
quantity.measured: pIC50

Problem: Could you tell me which pIC50 is on file for CN(C(=O)c1cnco1)[C@@H](c1ccc(NC2Cc3ccccc3C2(C)C)cc1)C(F)(F)F (single isomer, unassigned) [Example 5] ?
Solution: 6.85

Problem: What value of measured pIC50 is listed for CN(C(=O)C1CCS(=O)(=O)CC1)[C@@H](c1ccc(NC2Cc3ccccc3C2(C)C)nc1)C(F)(F)F (single isomer, unassigned) [Example 37] ?
Solution: 6.57

Problem: Recorded pIC50 for CN(C(=O)N1CCC(O)CC1)[C@@H](c1ccc(NC2Cc3ccccc3C2(C)C)cc1)C(F)(F)F (single isomer, unassigned) [Example 22] , please?
Solution: 6.54

a = CN(C(=O)CN1CC(=O)NC1=O)[C@@H](c1ccc(NC2Cc3ccccc3C2(C)C)cc1)C(F)(F)F (single isomer, unassigned) [Example 66]
b = CN(C(=O)CCCC(=O)O)[C@@H](c1ccc(NC2Cc3ccccc3C2(C)C)cc1)C(F)(F)F (single isomer, unassigned) [Example 50]
Problem: Decide: a or b , by lowest recorded pIC50. In your reply, give the label of the chosen option.
Solution: a

* * *

# test.system: FL hMALT1 enzyme (Homo sapiens, UniProt Q9UDY8);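 note: Cell-free protease assay: enzyme preincubated with compound 30 min at room temperature, then cleavage of fluorogenic Ac-LVSR-AMC substrate (100 µM) tracked by fluorescence (ex 360/em 460 nm)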
# Sequence (Q9UDY8 whole entry): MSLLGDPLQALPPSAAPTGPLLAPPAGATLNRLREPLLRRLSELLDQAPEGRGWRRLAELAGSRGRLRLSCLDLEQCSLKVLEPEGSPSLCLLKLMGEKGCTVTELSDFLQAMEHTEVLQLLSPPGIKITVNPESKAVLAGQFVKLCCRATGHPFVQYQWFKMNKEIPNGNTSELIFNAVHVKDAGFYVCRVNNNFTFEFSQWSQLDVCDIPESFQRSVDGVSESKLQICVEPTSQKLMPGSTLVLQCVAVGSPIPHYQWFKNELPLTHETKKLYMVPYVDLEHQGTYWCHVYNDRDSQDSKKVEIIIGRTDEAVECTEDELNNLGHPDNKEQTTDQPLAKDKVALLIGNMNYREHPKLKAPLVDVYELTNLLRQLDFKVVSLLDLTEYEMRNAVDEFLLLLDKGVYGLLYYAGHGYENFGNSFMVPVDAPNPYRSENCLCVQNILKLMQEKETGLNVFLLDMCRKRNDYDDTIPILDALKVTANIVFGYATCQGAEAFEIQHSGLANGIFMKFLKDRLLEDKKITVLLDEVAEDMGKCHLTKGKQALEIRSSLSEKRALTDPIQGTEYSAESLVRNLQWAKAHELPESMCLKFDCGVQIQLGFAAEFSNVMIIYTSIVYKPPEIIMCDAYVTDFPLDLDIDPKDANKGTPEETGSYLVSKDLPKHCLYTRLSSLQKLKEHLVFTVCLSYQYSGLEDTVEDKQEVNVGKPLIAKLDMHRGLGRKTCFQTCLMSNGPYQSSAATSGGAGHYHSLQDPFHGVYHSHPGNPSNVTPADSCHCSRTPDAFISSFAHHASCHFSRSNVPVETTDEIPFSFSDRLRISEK
# protocol: biochemical
pIC50: −log10 of the molar value.
quantity.measured: pIC50

Below are worked cases with known answers.
Problem: What pIC50 appears in the records for this compound with FL hMALT1 enzyme (Homo sapiens, UniProt Q9UDY8)? CN(C(=O)CNS(C)(=O)=O)[C@@H](c1ccc(NC2Cc3ccc(Cl)c(Cl)c3C2)cn1)C(F)(F)F (single isomer, unassigned) [Example 380]
Solution: 5.73

Problem: Record lookup: for FL hMALT1 enzyme (Homo sapiens, UniProt Q9UDY8), what pIC50 belongs to CN(C(=O)C1CNC(=O)O1)[C@@H](c1ccc(N[C@H]2Cc3ccc(Cl)cc3C2)cn1)C(F)(F)F (stereo partly drawn) [Example 303] ?
Solution: 6.72

1 = CC(=O)N[C@@H]1CC[C@H](C(=O)N(C)[C@@H](c2ccc(N[C@H]3Cc4ccccc4C3(C)C)cn2)C(F)(F)F)C1 [Example 187]
2 = CN(C(=O)C1CCS(=O)(=O)CC1)[C@@H](c1ccc(NC2Cc3ccc(Cl)c(F)c3C2)cn1)C(F)(F)F (single isomer, unassigned) [Example 276]
3 = CN(C(=O)C1CCS(=O)(=O)CC1)[C@@H](c1ccc(NC2Cc3cccc(OC(F)F)c3C2)cn1)C(F)(F)F (stereo partly drawn) [Example 333]
4 = CNC(=O)C1(C(=O)N(C)[C@@H](c2ccc(NC3Cc4ccc(Cl)c(F)c4C3)cn2)C(F)(F)F)CC1 (stereo partly drawn) [Example 368]
Problem: # sort list by recorded pIC50, greatest to least Your answer should be the labels, listed in the requested order.
Solution: 1, 3, 4, 2
